biological target: T1, IFN-αG (human, UniProt P01569 24-189); experiment: ProteOn, one antigen concentration
T1 construct: also called IFN-α5; alpha G
Property: Kd; scope: individual binders
# output: bare number, implied unit pM

Binder	Kd / pM
IFWM3355 (antibody, V domains shown, VH IFWH624, VL IFWL1022; converted mAb; also called IFWB3090) VH: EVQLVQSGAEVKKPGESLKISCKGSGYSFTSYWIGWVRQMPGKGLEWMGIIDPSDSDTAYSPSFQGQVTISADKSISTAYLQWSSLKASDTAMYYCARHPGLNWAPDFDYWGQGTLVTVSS VL: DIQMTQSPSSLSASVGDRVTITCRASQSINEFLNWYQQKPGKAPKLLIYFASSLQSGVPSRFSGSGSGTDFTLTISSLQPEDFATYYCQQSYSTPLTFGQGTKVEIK	60

-- ask State its Kd for this binder: IFWM3340 (antibody, V domains shown, VH IFWH624, VL IFWL983; converted mAb; also called IFWB3075) VH: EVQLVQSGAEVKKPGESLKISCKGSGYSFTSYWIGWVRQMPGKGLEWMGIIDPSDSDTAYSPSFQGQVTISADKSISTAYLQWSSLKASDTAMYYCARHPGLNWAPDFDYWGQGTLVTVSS VL: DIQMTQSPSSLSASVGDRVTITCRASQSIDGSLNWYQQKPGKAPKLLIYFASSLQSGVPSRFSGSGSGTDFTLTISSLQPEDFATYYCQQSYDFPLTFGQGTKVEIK
-- reply 24
